test system: DC-3F (hamster lung) cells; assay: Cytotoxicity assay, DC-3F cells (sulforhodamine B protein content); type: cell-based; conditions: Mesocricetus auratus, DC3F, read-out: Inhibition of cancer cell growth IC50, DC-3F
pIC50: −log10 of the molar value.
measurement_label: pIC50

- compound: "CCC1(O)C(=O)OCc2c1cc1n(c2=O)Cc2c-1nc1ccc(OC(=O)N3CCC(N4CCCCC4)CC3)cc1c2[Si](C)(C)C (stereo in doubt) [Example 6, (20S) 7-trimethylsilyl-irinotecan]"
  measurement_label: "pIC50"
  recorded_value: 6.59

###

The following compounds are listed with their measured % Lactone at Equilibrium values.
assay: Kinetics of lactone ring opening in whole human blood (HPLC); conditions: Whole Blood, physiological temperature;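 note: hydrolytic opening of the camptothecin lactone ring followed over time by quantitative C18 reversed-phase HPLC in human whole blood at physiological temperature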

- compound: "CC[C@@]1(O)C(=O)OCc2c1cc1n(c2=O)Cc2c-1nc1ccc(O)cc1c2[Si](C)(C)CCCN(C)C.Cl"
  % Lactone at Equilibrium: "31.8 +/− 0.8%"
- compound: "CC[C@@]1(O)C(=O)OCc2c1cc1n(c2=O)Cc2cc3c(N)cccc3nc2-1"
  % Lactone at Equilibrium: "< 0.3%"
- compound: "CC[C@@]1(O)C(=O)OCc2c1cc1n(c2=O)Cc2cc3c(CN(C)C)c(O)ccc3nc2-1 [Topotecan, topotecan, reference compound]"
  % Lactone at Equilibrium: "8.61 +/− 0.4%"
- compound: "CC[C@@]1(O)C(=O)OCc2c1cc1n(c2=O)Cc2c-1nc1ccccc1c2CC[Si](C)(C)C"
  % Lactone at Equilibrium: "24.1 +/− 2.6%"
